Reference source for all entries: patent US20110053865A1

measurement-target: T1, recombinant human IL-12 (human, UniProt P29459 23-219; P29460 23-328)
T1 construct: Bought (R&D Systems); also called hIL-12
T1 sequence (looked up) 1: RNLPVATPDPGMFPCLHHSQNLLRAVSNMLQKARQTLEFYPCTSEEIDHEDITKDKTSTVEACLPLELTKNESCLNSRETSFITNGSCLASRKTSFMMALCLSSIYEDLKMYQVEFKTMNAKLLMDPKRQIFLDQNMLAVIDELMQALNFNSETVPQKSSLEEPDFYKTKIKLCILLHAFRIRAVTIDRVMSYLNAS
T1 sequence (looked up) 2: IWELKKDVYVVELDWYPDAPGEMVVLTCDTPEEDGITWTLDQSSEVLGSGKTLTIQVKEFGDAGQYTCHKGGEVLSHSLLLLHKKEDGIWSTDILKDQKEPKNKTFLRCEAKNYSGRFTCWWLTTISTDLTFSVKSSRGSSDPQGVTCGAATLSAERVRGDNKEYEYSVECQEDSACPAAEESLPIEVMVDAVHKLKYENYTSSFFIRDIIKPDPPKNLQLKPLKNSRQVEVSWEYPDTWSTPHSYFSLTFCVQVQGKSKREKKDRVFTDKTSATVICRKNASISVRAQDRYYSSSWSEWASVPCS
method: alpha-screen, hIL-12/IL12Rbeta1-Fc
attribute-measured: IC50 (nM)
# unit: nM | format: bare number

-- ask # get_value(readout='IC50', item= P23IL-22E11 (VHH) VHH: EVQLVESGGGLVQAGGSLRLSCAASGRTFSWSAVGWFRQAPGKEREFVAAIRWSGGSPYYADSVKDRFTISRDNAKNTVYLQMNSLRPEDTAVYLCGETSLFPTSRGSHYDTWGQGTQVTVSS )
-- reply 1.3

-- ask Try P23IL-22D7 (VHH, p40+ Nanobody) VHH: EVQLVESGGGLVQAGGSLRLSCASSGRTFSIYARGWFRQAPGKEREFVAAIRSGLTTYSDSVKGRFTISRDIAKNTVFLQMNSLKSEDTAVYYCAAAVNYFTDFTDYSKRDSYDYWGQGTQVTVSS next.
-- reply 1.9

-- ask Another: P23IL-23E3 (VHH, p40+ Nanobody) VHH: EVQLVESGGELVQAGGSLRLSCAASGSIVSISAMAWYRQAPGKQRERVATITRGGTPDYADSAKDRFTISRDNAKNTVSLQMNNLKPEDTAVYYCKAALRTPTHDYNYYDYWGQGTQVTVSS
-- reply 1.2

-- ask What do you get for P23IL-23H3 (VHH, p40+ Nanobody) VHH: EVQLVESGGGLVQAGDSLRLSCAASGRSFSNDAMGWFRQAPGKERSFVAAINWSGELTGYAGSVKGRFTISRDGVENMVFLQMNSLVPEDTGVYYCAAVEGRDYYRGAQYYDYWGQGTQVTVSS ?
-- reply 1.2
